target: Human Cav 2.2 channels (Homo sapiens, UniProt Q00975); assay: Fluorescent assay for CaV2.2 channels using potassium depolarization (VIPR/FLIPR); type: cell-based; conditions: FLIPR data; ratio closed/inactivated IC50
Sequence (Q00975 whole entry): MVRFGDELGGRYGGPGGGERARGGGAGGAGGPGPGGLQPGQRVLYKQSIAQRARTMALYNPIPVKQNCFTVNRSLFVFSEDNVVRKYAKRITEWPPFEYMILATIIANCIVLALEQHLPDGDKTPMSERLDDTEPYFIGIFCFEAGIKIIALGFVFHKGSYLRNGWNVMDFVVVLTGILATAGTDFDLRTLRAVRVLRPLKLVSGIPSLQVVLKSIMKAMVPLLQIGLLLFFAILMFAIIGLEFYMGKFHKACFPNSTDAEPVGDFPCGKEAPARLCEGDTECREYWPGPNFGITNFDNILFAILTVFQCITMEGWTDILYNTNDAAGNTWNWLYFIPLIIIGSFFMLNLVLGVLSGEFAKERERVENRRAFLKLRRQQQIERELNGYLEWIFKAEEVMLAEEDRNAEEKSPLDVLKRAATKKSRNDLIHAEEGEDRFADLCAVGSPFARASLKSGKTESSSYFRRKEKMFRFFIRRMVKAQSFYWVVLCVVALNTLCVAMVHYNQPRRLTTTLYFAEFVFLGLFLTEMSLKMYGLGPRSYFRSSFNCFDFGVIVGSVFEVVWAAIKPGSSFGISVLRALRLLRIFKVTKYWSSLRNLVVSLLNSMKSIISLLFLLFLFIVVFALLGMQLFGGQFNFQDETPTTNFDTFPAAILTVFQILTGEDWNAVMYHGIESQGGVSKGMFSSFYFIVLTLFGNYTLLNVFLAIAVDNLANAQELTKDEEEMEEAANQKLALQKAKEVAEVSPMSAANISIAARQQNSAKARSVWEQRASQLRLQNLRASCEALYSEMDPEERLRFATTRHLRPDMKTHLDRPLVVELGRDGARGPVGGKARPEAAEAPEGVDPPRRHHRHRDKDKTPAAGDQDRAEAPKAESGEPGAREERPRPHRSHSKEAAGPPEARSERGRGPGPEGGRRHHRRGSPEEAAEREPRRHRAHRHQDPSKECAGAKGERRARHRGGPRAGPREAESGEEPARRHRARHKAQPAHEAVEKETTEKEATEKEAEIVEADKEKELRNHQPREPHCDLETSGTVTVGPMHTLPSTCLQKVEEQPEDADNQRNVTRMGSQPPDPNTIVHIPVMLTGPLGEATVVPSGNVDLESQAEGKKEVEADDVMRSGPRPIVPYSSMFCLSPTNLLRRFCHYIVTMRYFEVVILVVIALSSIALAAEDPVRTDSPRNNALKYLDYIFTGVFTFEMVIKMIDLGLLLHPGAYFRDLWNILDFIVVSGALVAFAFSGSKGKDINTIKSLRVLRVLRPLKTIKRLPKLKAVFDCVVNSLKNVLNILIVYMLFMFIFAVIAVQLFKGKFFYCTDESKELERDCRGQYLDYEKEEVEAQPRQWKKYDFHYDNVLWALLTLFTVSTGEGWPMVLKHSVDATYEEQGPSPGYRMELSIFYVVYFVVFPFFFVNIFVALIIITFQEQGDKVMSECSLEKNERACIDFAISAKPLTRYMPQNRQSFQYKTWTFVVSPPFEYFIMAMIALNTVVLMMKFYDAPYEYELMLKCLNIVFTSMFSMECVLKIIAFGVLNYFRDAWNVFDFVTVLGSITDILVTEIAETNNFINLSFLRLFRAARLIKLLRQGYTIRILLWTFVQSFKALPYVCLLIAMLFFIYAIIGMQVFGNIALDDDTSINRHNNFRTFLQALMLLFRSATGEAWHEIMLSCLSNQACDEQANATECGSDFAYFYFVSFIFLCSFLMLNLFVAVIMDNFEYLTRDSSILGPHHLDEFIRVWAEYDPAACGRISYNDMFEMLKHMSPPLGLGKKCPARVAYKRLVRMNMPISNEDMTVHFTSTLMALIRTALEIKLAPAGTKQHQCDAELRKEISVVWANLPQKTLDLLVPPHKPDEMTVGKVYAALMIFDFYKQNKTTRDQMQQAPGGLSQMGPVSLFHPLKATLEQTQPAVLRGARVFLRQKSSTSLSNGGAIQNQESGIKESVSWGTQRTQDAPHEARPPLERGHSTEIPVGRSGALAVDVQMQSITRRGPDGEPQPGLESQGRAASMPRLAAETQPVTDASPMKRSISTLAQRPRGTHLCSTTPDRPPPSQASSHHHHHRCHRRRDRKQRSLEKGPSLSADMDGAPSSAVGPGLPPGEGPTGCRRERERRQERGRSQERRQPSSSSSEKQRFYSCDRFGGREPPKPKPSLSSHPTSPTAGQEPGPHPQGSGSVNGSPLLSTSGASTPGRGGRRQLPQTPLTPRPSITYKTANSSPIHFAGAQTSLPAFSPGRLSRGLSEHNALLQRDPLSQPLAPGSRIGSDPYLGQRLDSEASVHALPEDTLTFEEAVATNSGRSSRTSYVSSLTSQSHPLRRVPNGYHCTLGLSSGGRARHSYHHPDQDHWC
Sequence (P54289 25-1103 partner): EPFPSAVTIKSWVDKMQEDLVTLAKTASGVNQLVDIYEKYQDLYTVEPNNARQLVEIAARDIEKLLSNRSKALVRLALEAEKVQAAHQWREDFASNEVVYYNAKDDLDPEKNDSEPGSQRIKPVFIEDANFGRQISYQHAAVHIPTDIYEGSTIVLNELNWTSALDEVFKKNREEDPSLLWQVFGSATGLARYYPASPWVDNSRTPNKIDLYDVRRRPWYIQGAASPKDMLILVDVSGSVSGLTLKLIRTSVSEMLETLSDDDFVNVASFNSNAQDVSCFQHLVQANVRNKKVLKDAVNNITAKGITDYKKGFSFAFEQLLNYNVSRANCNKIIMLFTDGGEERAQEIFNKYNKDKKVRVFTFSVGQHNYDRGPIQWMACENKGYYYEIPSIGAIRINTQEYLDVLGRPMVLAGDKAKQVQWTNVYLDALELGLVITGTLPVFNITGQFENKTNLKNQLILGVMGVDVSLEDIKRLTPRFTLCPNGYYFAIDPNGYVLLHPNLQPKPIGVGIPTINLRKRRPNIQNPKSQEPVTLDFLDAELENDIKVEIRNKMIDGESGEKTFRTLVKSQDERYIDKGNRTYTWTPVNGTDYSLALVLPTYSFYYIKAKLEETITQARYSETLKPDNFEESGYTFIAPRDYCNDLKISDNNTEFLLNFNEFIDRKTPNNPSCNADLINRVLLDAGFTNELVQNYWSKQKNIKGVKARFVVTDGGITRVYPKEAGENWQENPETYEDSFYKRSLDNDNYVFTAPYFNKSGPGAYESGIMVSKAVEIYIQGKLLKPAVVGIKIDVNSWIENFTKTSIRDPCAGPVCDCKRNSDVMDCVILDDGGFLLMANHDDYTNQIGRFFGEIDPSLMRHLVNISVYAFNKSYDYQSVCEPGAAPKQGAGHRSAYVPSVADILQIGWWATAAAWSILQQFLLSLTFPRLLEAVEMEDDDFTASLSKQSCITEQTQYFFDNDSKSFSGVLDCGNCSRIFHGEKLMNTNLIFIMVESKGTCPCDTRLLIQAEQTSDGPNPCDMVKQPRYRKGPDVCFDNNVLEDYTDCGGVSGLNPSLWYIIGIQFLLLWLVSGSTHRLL
Sequence (P54284 whole entry partner): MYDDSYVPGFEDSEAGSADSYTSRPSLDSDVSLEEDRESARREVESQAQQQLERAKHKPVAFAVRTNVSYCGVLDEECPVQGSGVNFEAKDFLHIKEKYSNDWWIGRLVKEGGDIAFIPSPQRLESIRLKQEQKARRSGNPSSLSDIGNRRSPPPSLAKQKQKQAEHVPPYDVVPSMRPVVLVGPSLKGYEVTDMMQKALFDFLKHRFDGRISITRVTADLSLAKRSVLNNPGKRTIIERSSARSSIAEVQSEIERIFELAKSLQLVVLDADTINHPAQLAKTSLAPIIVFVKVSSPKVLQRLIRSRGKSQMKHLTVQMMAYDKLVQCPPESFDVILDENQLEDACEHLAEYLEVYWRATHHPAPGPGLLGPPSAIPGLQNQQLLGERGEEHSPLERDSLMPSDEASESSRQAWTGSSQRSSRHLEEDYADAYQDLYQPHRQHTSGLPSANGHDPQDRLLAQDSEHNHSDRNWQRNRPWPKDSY
Reported CAv2.2 IC50 Ratio closed/inact. by item:

The examples below pair each entry with its known result.
CC(C)(C[C@H]1C[C@H](NC(=O)[C@@H]2CCCC[C@@H]2N)C1)S(=O)(=O)c1cccc(C(F)(F)F)c1 :: 4.3
CC(C)([C@H]1C[C@@H](CNC(=O)c2ncc(C(F)(F)F)cc2S(C)(=O)=O)C1)S(=O)(=O)c1cccc(C(F)(F)F)c1 :: 22.2
CC(C)(C[C@H]1C[C@H](NC(=O)[C@@H]2CCCC[C@H]2N)C1)S(=O)(=O)c1cccc(C(F)(F)F)c1 :: 2.3
CC(C)(C[C@H]1C[C@H](NC(=O)c2ccc(C(F)(F)F)cc2)C1)S(=O)(=O)c1cccc(C(F)(F)F)c1 :: 11.3
CC(C)([C@H]1C[C@H](NC(=O)c2ccc(F)c(Cl)c2)C1)S(=O)(=O)c1cccc(OC(F)(F)F)c1 :: 10

Observed CAv2.2 IC50 Ratio closed/inact. on Human Cav 2.2 channels (Homo sapiens, UniProt Q00975) for CC(C)(C1CC(CNC(=O)c2cnc(C(F)(F)F)nc2)C1)S(=O)(=O)c1cccc(C(F)(F)F)c1 (stereo not shown) , please.
7.9

Observed CAv2.2 IC50 Ratio closed/inact. on Human Cav 2.2 channels (Homo sapiens, UniProt Q00975) for CC(C)(C[C@H]1C[C@H](NC(=O)c2cnc(C(F)(F)F)nc2)C1)S(=O)(=O)c1cccc(C(F)(F)F)c1 , please.
9.5

----------
Reported CAv2.2 IC50 Ratio closed/inact. by item:
biological target: UniProt Q00975; assay: Fluorescent assay for CaV2.2 channels using potassium depolarization (VIPR/FLIPR); assay type: cell-based; details: FLIPR data; ratio closed/inactivated IC50
Please respond with just the number, no unit label.

The examples below pair each entry with its known result.
O=C(NC[C@H]1C[C@H](S(=O)(=O)c2cccc(OC(F)(F)F)c2)C1)c1ccnc(C(F)(F)F)n1 :: 5.3
CC(C)([C@H]1C[C@@H](NS(=O)(=O)c2ccc(Cl)c(F)c2)C1)S(=O)(=O)c1cc(F)cc(C(F)(F)F)c1 :: 6.4
CC(C)([C@H]1C[C@H](Nc2ccnc(C(F)(F)F)n2)C1)S(=O)(=O)c1cc(F)cc(C(F)(F)F)c1 :: 4.1
CC(C)([C@H]1C[C@@H](NS(=O)(=O)c2ccc(F)c(C(F)(F)F)c2)C1)S(=O)(=O)c1cccc(C(F)(F)F)c1 :: 8.2
CC(C)([C@H]1C[C@@H](NS(=O)(=O)c2ccc(F)c(Cl)c2)C1)S(=O)(=O)c1cc(F)cc(C(F)(F)F)c1 :: 6

Observed CAv2.2 IC50 Ratio closed/inact. on UniProt Q00975 for CC(C)S(=O)(=O)c1cc(C(F)(F)F)cnc1C(=O)NC[C@H]1C[C@@H](C(C)(C)S(=O)(=O)c2cccc(C(F)(F)F)c2)C1 , please.
61.8

Observed CAv2.2 IC50 Ratio closed/inact. on UniProt Q00975 for N[C@H]1CCCCC1C(=O)NC[C@H]1C[C@H](S(=O)(=O)c2cccc(OC(F)(F)F)c2)C1 (some centres unmarked) , please.
3.2

Observed CAv2.2 IC50 Ratio closed/inact. on UniProt Q00975 for CC(C)([C@H]1C[C@H](NS(=O)(=O)c2ccc(C(F)(F)F)cc2)C1)S(=O)(=O)c1cccc(C(F)(F)F)c1 , please.
10.6

Observed CAv2.2 IC50 Ratio closed/inact. on UniProt Q00975 for CC(C)([C@H]1C[C@@H](Nc2ccnc(C(F)(F)F)n2)C1)S(=O)(=O)c1cc(F)cc(C(F)(F)F)c1 , please.
5.1

Observed CAv2.2 IC50 Ratio closed/inact. on UniProt Q00975 for O=C(NC[C@H]1C[C@H](S(=O)(=O)c2cccc(OC(F)(F)F)c2)C1)c1ccc(Cl)cn1 , please.
5.2

Observed CAv2.2 IC50 Ratio closed/inact. on UniProt Q00975 for O=C(NC[C@H]1C[C@H](S(=O)(=O)c2cccc(OC(F)(F)F)c2)C1)c1ccc(C(F)(F)F)cc1 , please.
7

Observed CAv2.2 IC50 Ratio closed/inact. on UniProt Q00975 for N[C@@H]1CCCC[C@H]1C(=O)NC[C@H]1C[C@H](S(=O)(=O)c2cccc(OC(F)(F)F)c2)C1 , please.
2.5

Observed CAv2.2 IC50 Ratio closed/inact. on UniProt Q00975 for CC(C)(C[C@H]1C[C@@H](NC(=O)c2ccc(Cl)cc2S(C)(=O)=O)C1)S(=O)(=O)c1cccc(C(F)(F)F)c1 , please.
23.4

Observed CAv2.2 IC50 Ratio closed/inact. on UniProt Q00975 for CC(C)(C[C@H]1C[C@@H](NC(=O)c2ccc(OCC(F)(F)F)nc2)C1)S(=O)(=O)c1cccc(C(F)(F)F)c1 , please.
21.5

----------
Reported CAv3.2 IC50 Ratio closed/inact. by item:
molecular target: T-type calcium channel (Homo sapiens); assay: T-type channel blocking, FLIPR data (Table 6); format: cell-based; conditions: CAv3.2, ratio closed/inactivated IC50

The examples below pair each entry with its known result.
CC(C)(C[C@H]1C[C@H](NC(=O)c2ncc(C(F)(F)F)cc2S(C)(=O)=O)C1)S(=O)(=O)c1cccc(C(F)(F)F)c1 [Compound 717] :: 1
CC(C)([C@H]1C[C@H](NC(=O)c2ccnc(C(F)(F)F)n2)C1)S(=O)(=O)c1cccc(OC(F)(F)F)c1 [Compound 635] :: 1
O=C(NC[C@H]1C[C@H](S(=O)(=O)c2cccc(C(F)(F)F)c2)C1)c1ccc(C(F)(F)F)cc1 [Compound 572] :: 1.5
CC(C)([C@H]1C[C@@H](NC(=O)c2cc(C(F)(F)F)n[nH]2)C1)S(=O)(=O)c1cc(F)cc(C(F)(F)F)c1 [Compound 587] :: 1.8
CC(C)([C@H]1C[C@H](NC(=O)c2cc(C(F)(F)F)n[nH]2)C1)S(=O)(=O)c1cccc(OC(F)(F)F)c1 [Compound 632] :: 0.4
CC(C)(C[C@H]1C[C@H](NC(=O)CC2(N)CCCCC2)C1)S(=O)(=O)c1cccc(C(F)(F)F)c1 [Compound 726] :: 1
O=C(NC[C@H]1C[C@H](S(=O)(=O)c2cc(F)cc(C(F)(F)F)c2)C1)c1ccc(C(F)(F)F)nc1 [Compound 704] :: 1.1
CC(C)(C1CC(CNC(=O)c2ccnc(C(F)(F)F)c2)C1)S(=O)(=O)c1cccc(C(F)(F)F)c1 (stereo not drawn) [Compound 620] :: 4

Observed CAv3.2 IC50 Ratio closed/inact. on T-type calcium channel (Homo sapiens) for CC(C)([C@H]1C[C@H](NS(=O)(=O)c2ccc(C(F)(F)F)cc2Cl)C1)S(=O)(=O)c1cccc(C(F)(F)F)c1 [Compound 666] , please.
1

Observed CAv3.2 IC50 Ratio closed/inact. on T-type calcium channel (Homo sapiens) for CC(C)([C@H]1C[C@H](Nc2ccnc(C(F)(F)F)n2)C1)S(=O)(=O)c1cc(F)cc(C(F)(F)F)c1 [Compound 649] , please.
0.9

Observed CAv3.2 IC50 Ratio closed/inact. on T-type calcium channel (Homo sapiens) for CC(C)([C@H]1C[C@@H](NC(=O)c2ncc(C(F)(F)F)cc2S(C)(=O)=O)C1)S(=O)(=O)c1cccc(OC(F)(F)F)c1 [Compound 644] , please.
1

Observed CAv3.2 IC50 Ratio closed/inact. on T-type calcium channel (Homo sapiens) for CC(C)([C@H]1C[C@H](NC(=O)c2ccc(Cl)cn2)C1)S(=O)(=O)c1cccc(C(F)(F)F)c1 [Compound 673] , please.
1.2

Observed CAv3.2 IC50 Ratio closed/inact. on T-type calcium channel (Homo sapiens) for CC(C)(C1CC(CNC(=O)c2ccc(C(F)(F)F)cc2S(C)(=O)=O)C1)S(=O)(=O)c1cccc(C(F)(F)F)c1 (stereo not drawn) [Compound 612] , please.
2.3

Observed CAv3.2 IC50 Ratio closed/inact. on T-type calcium channel (Homo sapiens) for CC(C)(C[C@H]1C[C@@H](NC(=O)c2ccc(C(F)(F)F)cn2)C1)S(=O)(=O)c1cccc(C(F)(F)F)c1 [Compound 735] , please.
3.1

Observed CAv3.2 IC50 Ratio closed/inact. on T-type calcium channel (Homo sapiens) for CC(C)(C[C@H]1C[C@@H](NC(=O)c2ccc(C(F)(F)F)cc2)C1)S(=O)(=O)c1cccc(C(F)(F)F)c1 [Compound 732] , please.
0.8

Observed CAv3.2 IC50 Ratio closed/inact. on T-type calcium channel (Homo sapiens) for CC(C)([C@H]1C[C@H](NS(=O)(=O)c2ccc(OC(F)(F)F)cc2)C1)S(=O)(=O)c1cccc(C(F)(F)F)c1 [Compound 669] , please.
1
